All figures here come from the supplement of paper PMC4466140.

biological target: ScSla1-D1-D2; test: SPOT peptide array binding signal intensity (averaged, normalized) (arbitrary units (background-subtracted, floor 0; scale differs between SH3 domains)); higher = stronger binding of the SH3 domain to the peptide
# SPOT peptide array binding signal intensity per entry
assay.endpoint: SPOT peptide array binding signal intensity

In [3]: df
Out[3]:
            binder  measured_value
0  MPAPPPPPPPPPGAF             ≤ 0
1  APPLPPTAPPPPSLP             ≤ 0
2  TSIEIPKRSPLRFTS             ≤ 0
